Origin of measurements: patent US8008299B2

experimental target: rat GPR14 (U-II receptor) (Rattus norvegicus)
Construct: expressed in transfected cells
Sequence (P49684 whole entry): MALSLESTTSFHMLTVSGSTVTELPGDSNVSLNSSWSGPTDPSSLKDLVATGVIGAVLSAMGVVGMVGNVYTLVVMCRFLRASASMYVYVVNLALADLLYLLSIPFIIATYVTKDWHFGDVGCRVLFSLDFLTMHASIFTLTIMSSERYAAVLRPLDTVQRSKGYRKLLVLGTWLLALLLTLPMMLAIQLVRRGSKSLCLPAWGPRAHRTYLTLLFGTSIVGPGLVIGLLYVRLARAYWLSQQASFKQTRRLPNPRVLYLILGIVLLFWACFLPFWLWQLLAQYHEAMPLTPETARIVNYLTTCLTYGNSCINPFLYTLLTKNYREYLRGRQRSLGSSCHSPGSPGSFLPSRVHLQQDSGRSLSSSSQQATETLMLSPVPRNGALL
assay details: Rat UII Calcium Mobilization FLIPR Assay
Format: cell-based
condition info: CHO cells transfected with rat GPR14; antagonist activity after 5 min incubation vs agonist (Ac)-CFWK(2-NaI)C-NH2 at 1 nM
pIC50: −log10 of the molar value.
readout kind: pIC50

Data request: Reported pIC50, compound CCN1CCN(c2cccc3c2CN([C@H](CCCn2cnc4ccccc42)c2ccc(OC)c(OC)c2)C3=O)CC1 : ____
Data returned: 7.85

Data request: Reported pIC50, compound CCN1CCN(c2cccc3c2CN([C@H](CCCN(Cc2ccncc2)Cc2ccncc2)c2ccc(OC)c(OC)c2)C3=O)CC1 : ____
Data returned: 8.15

Data request: Reported pIC50, compound COc1ccc([C@@H](CCCNc2nccc(C(F)(F)F)n2)N2Cc3c(cccc3N3CCN(Cc4ccccc4)CC3)C2=O)cc1OC : ____
Data returned: 7.80

Data request: Reported pIC50, compound COc1ccc([C@@H](CCCn2ccnc2)N2Cc3c(cccc3N3CCNCC3)C2=O)cc1OC : ____
Data returned: 5.72

Data request: Reported pIC50, compound CCN1CCN(c2cccc3c2CN(C(c2ccc(OC)c(OC)c2)C2CCN(S(=O)(=O)c4cccs4)CC2)C3=O)CC1 (stereo not drawn) : ____
Data returned: 6.33

Data request: Reported pIC50, compound CCN1CCN(c2cccc3c2CN([C@H](CCCNS(=O)(=O)c2cn(C)cn2)c2ccc(OC)c(OC)c2)C3=O)CC1 : ____
Data returned: 7.28

a = CCN1CCN(c2cccc3c2CN([C@H](CCCNCc2ccc(F)cc2)c2ccc(OC)c(OC)c2)C3=O)CC1
b = CCN1CCN(c2cccc3c2CN([C@H](CCCOCc2cccc(C)c2)c2ccc(OC)c(OC)c2)C3=O)CC1
c = CCN1CCN(c2cccc3c2CN([C@H](CCCNc2cccc[n+]2[O-])c2ccc(OC)c(OC)c2)C3=O)CC1
d = CCN1CCN(c2cccc3c2CN(C(c2ccc(OC)c(OC)c2)C2CCN(S(=O)(=O)c4cn(C)c(C)n4)CC2)C3=O)CC1 (stereo not drawn)
e = CCN1CCN(c2cccc3c2CN([C@H](CCCN2CCc4ccccc4C2)c2ccc(OC)c(OC)c2)C3=O)CC1
Data request: Ranking field: pIC50; order: falling. Field: ranking. Enter the labels in the order requested.
Data returned: a, e, c, b, d

###

experimental target: UT receptors in HSMM (Human Skeletal Muscle Myoblasts) (Homo sapiens)
Sequence (Q9UKP6 1-389): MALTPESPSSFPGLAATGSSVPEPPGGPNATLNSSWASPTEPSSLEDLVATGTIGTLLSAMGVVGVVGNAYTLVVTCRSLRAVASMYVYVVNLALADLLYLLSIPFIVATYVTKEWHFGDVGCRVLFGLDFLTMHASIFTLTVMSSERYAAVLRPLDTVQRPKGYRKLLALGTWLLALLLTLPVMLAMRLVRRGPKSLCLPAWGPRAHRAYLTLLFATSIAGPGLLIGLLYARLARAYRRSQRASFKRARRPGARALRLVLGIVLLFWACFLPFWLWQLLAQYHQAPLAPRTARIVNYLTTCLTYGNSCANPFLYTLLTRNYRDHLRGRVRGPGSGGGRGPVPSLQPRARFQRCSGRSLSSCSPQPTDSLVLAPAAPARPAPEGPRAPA
assay details: Human Radioligand Binding Assay ((^125I)-U-II binding to intact HSMM)
pKi: −log10 of the molar value.
readout kind: pKi

In the examples that follow, each entry is paired with its recorded pKi.
Data request: Reported pKi, molecule CCN1CCN(c2cccc3c2CN([C@H](CCCn2ccnc2)c2ccc(OC)c(OC)c2)C3=O)CC1 [Cpd 32] : ____
Data returned: 6.80

Data request: Reported pKi, molecule CCN1CCC(c2cccc3c2CN([C@H](CCCN(C)S(=O)(=O)c2cccs2)c2ccc(OC)c(OC)c2)C3=O)CC1 [Cpd 2] : ____
Data returned: 7.30

Data request: Reported pKi, molecule CCN1CCN(c2cccc3c2CN([C@H](CCCN(C)Cc2ccccc2F)c2ccc(OC)c(OC)c2)C3=O)CC1 [Cpd 97] : ____
Data returned: 7.59

Data request: Reported pKi, molecule CCN1CCN(c2cccc3c2CN([C@H](CCCNC(=O)c2cn[nH]c2)c2ccc(OC)c(OC)c2)C3=O)CC1 [Cpd 79] : ____
Data returned: 7.41

Data request: Reported pKi, molecule CCN1CCN(c2cccc3c2CN([C@H](CCCN(C)Cc2cccs2)c2ccc(OC)c(OC)c2)C3=O)CC1 [Cpd 95] : ____
Data returned: 7.64

I = CCN1CCN(c2cccc3c2CN([C@H](CCCNc2nccc(OC)n2)c2ccc(OC)c(OC)c2)C3=O)CC1 [Cpd 21]
II = CCN1CCN(c2cccc3c2CN([C@H](CCc2ccc4c(n2)NCCC4)c2ccc(OC)c(OC)c2)C3=O)CC1 [Cpd 86]
Data request: Field: entry with larger pKi (options I / II ). Identify your selection by its label.
Data returned: I
(I: 8.10, II: 6.41)

a = CCN1CCN(c2cccc3c2CN([C@H](CCCNC(=O)C(C)(C)C)c2ccc(OC)c(OC)c2)C3=O)CC1 [Cpd 83]
b = CCN1CCN(c2cccc3c2CN([C@H](CCCN(Cc2ccc(F)cc2)C(C)=O)c2ccc(OC)c(OC)c2)C3=O)CC1 [Cpd 88]
Data request: Field: entry with larger pKi (options a / b ). Identify your selection by its label.
Data returned: b

a = COc1ccc([C@@H](CCCOc2ccccc2)N2Cc3c(cccc3N3CCN(C4CC4)CC3)C2=O)cc1OC [Cpd 28]
b = CCN1CCN(c2cccc3c2CN([C@H](CCCNS(=O)(=O)c2cnc(C)n2C)c2ccc(OC)c(OC)c2)C3=O)CC1 [Cpd 49]
Data request: Field: entry with larger pKi (options a / b ). Identify your selection by its label.
Data returned: b

A = CCN1CCN(c2cccc3c2CN([C@H](CCCn2ccnc2C(C)C)c2ccc(OC)c(OC)c2)C3=O)CC1 [Cpd 104]
B = CCN1CCN(c2cccc3c2CN([C@H](CCCSc2cccc[n+]2[O-])c2ccc(OC)c(OC)c2)C3=O)CC1 [Cpd 31]
Data request: Field: entry with larger pKi (options A / B ). Identify your selection by its label.
Data returned: A
